- System Tested: Cholinesterase (Equus caballus, UniProt P81908)
- Sequence (P81908 whole entry): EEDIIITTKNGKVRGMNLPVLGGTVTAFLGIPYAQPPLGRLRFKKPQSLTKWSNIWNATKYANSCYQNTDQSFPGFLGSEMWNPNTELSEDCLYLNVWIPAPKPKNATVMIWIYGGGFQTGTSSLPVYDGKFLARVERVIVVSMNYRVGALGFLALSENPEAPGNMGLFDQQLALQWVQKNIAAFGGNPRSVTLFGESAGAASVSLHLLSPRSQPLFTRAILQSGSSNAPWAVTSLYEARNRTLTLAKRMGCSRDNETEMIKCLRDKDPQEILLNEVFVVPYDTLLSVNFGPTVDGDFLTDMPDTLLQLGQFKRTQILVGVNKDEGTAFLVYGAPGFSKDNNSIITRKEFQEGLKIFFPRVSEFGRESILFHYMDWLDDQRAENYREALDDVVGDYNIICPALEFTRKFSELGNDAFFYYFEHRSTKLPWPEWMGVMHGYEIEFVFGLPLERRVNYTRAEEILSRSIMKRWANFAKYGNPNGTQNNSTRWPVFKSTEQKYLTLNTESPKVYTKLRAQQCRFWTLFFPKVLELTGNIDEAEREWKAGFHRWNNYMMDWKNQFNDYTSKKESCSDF
- Protocol Details: Inhibition of equine serum BChE using butyrylthiocholine iodide as substrate preincubated for 15 mins followed by substrate addition measured for 30 mins by Ellman's method
pIC50: −log10 of the molar value.
Assign label 1 whenever pIC50 does not fall below 5; assign label 0 whenever it does.

Smiles Input	Class Label
C[C@H]1CC[C@H]2[C@H](C)[C@@H]3CC[C@@H]4[C@@H](C[C@H]5[C@H]4CC(=O)[C@H]4C[C@@H](O[C@@H]6O[C@H](CO)[C@@H](O)[C@H](O)[C@H]6O)CC[C@@]45C)[C@@H]3CN2C1	label 1
C[C@H]1CC[C@H]2[C@H](C)[C@H]3CC[C@@H]4[C@@H](C[C@H]5[C@H]4C[C@@H](O)[C@H]4C[C@@H](O)CC[C@@]45C)[C@@H]3CN2C1	label 0
C[C@H]1CC[C@H]2[C@H](C)[C@@H]3CC[C@@H]4[C@@H](C[C@H]5[C@H]4CC(=O)[C@H]4C[C@@H](O[C@@H]6O[C@H](CO)[C@@H](O[C@@H]7O[C@H](CO)[C@@H](O)[C@H](O)[C@H]7O)[C@H](O)[C@H]6O)CC[C@@]45C)[C@@H]3CN2C1	label 1
C[C@H]1CC[C@@H]2[C@@H](C)[C@@H]3CC[C@@H]4[C@@H](C[C@H]5[C@H]4C[C@@H](O)[C@H]4C[C@@H](O)CC[C@@]45C)[C@@H]3CN2C1	label 1
C[C@H]1CC[C@@H]2N(C1)C[C@H]1[C@@H]3C[C@H]4[C@@H](CC(=O)[C@H]5C[C@@H](O[C@@H]6O[C@H](CO)[C@@H](O)[C@H](O)[C@H]6O)CC[C@@]54C)[C@@H]3CC[C@H]1[C@]2(C)O	label 0
